# study_system: T1, IL-36R naturally expressed on OVCAR8 cells and on normal human epidermal keratinocytes (NHK cells) (human, UniProt Q9HB29 20-575)
# T1 sequence (looked up): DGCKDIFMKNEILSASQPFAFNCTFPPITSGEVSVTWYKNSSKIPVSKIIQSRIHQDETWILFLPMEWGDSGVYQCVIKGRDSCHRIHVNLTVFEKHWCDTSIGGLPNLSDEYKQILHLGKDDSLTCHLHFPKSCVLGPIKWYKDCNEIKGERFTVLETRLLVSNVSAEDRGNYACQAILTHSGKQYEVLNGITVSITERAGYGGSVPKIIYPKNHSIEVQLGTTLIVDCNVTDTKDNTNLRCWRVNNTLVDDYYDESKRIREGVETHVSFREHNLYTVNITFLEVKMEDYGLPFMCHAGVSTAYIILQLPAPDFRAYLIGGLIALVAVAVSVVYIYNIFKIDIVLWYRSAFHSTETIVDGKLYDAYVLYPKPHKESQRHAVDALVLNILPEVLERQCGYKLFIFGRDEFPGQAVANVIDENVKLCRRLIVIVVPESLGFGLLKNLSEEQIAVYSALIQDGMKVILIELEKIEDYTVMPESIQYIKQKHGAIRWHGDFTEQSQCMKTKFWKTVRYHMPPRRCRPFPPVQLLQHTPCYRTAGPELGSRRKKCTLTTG
# protocol: cell-based or functional assay
The following binders are listed with their measured IC50 (M); hIL36α; IL-8 production values.

{"columns": ["binder", "unit_annotation", "IC50 (M); hIL36α; IL-8 production"],
 "data": [
  ["hz84C4-2.1 (antibody, human IgG4 S228P, kappa, V domains shown, Humanized, human IgG4 / kappa) VH: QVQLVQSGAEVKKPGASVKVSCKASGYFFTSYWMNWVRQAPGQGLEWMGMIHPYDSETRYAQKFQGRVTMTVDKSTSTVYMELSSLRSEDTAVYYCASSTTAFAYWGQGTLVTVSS VL: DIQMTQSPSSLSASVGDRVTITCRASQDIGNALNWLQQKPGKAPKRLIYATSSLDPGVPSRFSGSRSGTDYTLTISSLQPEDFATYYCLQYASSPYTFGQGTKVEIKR", "M", "5.23e-11"],
  ["hz84C4-1.5 (antibody, human IgG4 S228P, kappa, V domains shown, Humanized, human IgG4 / kappa) VH: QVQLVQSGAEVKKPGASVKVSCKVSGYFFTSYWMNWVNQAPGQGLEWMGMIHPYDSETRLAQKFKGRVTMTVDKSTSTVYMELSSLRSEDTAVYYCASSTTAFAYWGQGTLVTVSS VL: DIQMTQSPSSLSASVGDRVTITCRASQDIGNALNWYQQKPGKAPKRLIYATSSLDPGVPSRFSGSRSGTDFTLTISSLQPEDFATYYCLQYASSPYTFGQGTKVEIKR", "M", "2.87e-11"],
  ["hz84C4-2.4 (antibody, human IgG4 S228P, kappa, V domains shown, Humanized, human IgG4 / kappa) VH: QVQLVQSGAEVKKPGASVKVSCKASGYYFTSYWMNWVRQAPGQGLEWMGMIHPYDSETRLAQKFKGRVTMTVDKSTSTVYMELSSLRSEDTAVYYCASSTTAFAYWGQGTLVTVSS VL: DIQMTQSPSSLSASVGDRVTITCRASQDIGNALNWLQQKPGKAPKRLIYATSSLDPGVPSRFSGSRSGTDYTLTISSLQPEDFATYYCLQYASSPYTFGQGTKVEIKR", "M", "4.68e-11"],
  ["hz84C4-1.2 (antibody, human IgG4 S228P, kappa, V domains shown, Humanized, human IgG4 / kappa) VH: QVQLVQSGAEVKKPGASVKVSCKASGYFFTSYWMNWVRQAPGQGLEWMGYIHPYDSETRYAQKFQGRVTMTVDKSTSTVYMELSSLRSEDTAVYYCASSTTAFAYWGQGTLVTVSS VL: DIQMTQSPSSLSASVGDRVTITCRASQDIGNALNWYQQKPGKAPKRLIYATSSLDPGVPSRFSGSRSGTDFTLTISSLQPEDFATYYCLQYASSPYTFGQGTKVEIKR", "M", "1.02e-10"],
  ["hz84C4-1.1 (antibody, human IgG4 S228P, kappa, V domains shown, Humanized, human IgG4 / kappa) VH: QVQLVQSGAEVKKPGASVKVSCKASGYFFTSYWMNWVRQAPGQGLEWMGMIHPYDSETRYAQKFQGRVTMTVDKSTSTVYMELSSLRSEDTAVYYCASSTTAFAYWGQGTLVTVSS VL: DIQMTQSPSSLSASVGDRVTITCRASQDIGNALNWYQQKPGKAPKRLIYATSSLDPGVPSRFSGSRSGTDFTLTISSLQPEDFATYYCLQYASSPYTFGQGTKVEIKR", "M", "2.62e-11"],
  ["hz84C4-2.2 (antibody, human IgG4 S228P, kappa, V domains shown, Humanized, human IgG4 / kappa) VH: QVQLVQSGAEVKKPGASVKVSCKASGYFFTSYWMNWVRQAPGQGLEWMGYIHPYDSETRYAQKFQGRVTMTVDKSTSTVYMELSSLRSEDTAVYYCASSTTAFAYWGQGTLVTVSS VL: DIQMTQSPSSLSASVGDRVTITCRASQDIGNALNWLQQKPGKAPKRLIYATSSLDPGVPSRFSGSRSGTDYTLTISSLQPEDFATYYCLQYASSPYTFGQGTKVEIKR", "M", "8.45e-11"],
  ["hz84C4-1.4 (antibody, human IgG4 S228P, kappa, V domains shown, Humanized, human IgG4 / kappa) VH: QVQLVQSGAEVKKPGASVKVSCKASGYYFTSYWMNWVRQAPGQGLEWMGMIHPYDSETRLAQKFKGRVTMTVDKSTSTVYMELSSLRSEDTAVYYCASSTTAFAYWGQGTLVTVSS VL: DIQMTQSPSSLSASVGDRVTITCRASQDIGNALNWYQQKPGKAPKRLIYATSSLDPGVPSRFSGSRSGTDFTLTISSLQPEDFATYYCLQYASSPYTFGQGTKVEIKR", "M", "3.71e-11"],
  ["hz84C4-2.5 (antibody, human IgG4 S228P, kappa, V domains shown, Humanized, human IgG4 / kappa) VH: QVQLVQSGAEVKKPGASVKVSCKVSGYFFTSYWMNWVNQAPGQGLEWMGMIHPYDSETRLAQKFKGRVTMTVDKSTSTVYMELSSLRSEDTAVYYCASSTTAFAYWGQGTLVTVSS VL: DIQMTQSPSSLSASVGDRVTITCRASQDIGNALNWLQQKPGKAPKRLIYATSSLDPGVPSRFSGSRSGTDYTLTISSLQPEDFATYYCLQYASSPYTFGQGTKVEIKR", "M", "4.81e-11"]
]}
